These entries and their values trace back to ChEMBL document CHEMBL5260807.

# Experiment Notes: Drug distribution in C57BL/6J mouse in circulatory system at 30 mg/kg,po and measured after 3 hrs
# Type: ADME, organism-based
# Test Parameters: read-out: Drug uptake
Measurement Name: concentration at 3 h (µM)
Give just the number in µM; leave the unit off.

Ask | Any idea what its concentration at 3 h is? The compound is O=C(O)c1ccc(Oc2cnc(NC(=O)[C@H](Oc3ccc(F)cc3F)c3ccc(S(=O)(=O)C4CC4)cc3)s2)cc1
Reply | 2.7

Field: next compound
Ask | May I ask what concentration at 3 h has been recorded for CC(C)(Oc1ccc(F)cc1F)C(=O)Nc1nc(CC(=O)O)c(Cl)s1 ?
Reply | 85

---

# Experiment Notes: AUC(0 to t) in C57BL/6J mouse at 30 mg/kg,po
# Format: ADME, organism-based
# Parameters: dose 30 mg/kg, route po
# Test Parameters: in vivo
Measurement Name: AUC(0-t) (µM·h)
Use µM·h as the unit, but write only the number.

Ask | Sample O=C(O)c1ccc(Oc2cnc(NC(=O)[C@H](Oc3ccc(F)cc3F)c3ccc(S(=O)(=O)C4CC4)cc3)s2)cc1 — what was its AUC(0-t)?
Reply | 22

---

# Experiment Notes: Clearance in C57BL/6J mouse at 3 mg/kg,iv and measured after 2 hrs by LC-MS/MS analysis
# Assay type: ADME, organism-based
# Test Parameters: in vivo
Measurement Name: clearance (mL/min/kg)
Express the result in mL/min/kg but write the number alone.

Ask | Please look up its clearance: O=C(O)c1ccc(Oc2cnc(NC(=O)[C@H](Oc3ccc(F)cc3F)c3ccc(S(=O)(=O)C4CC4)cc3)s2)cc1
Reply | 32.6
